Origin of values: PubChem BioAssay (NCI)

- Test system: LOX IMVI melanoma
- Test description: NCI-60 one-dose screen, 48 h
- Condition label: 10 µM unless noted
This is part of a sample that, as a whole, favours compounds with a hit. Of some 83,000 tested, about 20% had one in any assay. Activity calls are given as the source filed them. The calls were made as follows: active = growth percent below 10; inactive = the rest.
Select the matching outcome among active, inactive

Test call for this molecule, please: Cc1ccc(-c2nn(C)c(=O)c3noc(-c4ccc(C)cc4)c23)cc1
inactive

Test call for this molecule, please: O=c1ccn(Cc2cn(-c3c4ccccc4nc4ccccc34)nn2)c(=O)[nH]1
inactive

Test call for this molecule, please: CCCCCCN1C(=O)/C(=c2\sc3n(c2=O)C2C(NN=3)N(CC)C(=O)N2CC)c2ccccc21 (stereo not given)
active

Test call for this molecule, please: COc1c(C2CC(=O)Nc3c2c(C)nn3-c2nc3ccccc3[nH]2)cc2c(c1OC)OCO2 (stereo not given)
inactive

Test call for this molecule, please: O=C(N/N=C/[C@@H](O)[C@H](O)[C@H](O)CO)c1ccc(NC(=O)c2cccnc2)cc1
inactive

Test call for this molecule, please: COc1ccc2sc3c(NCCCNCCO)nc4ccccc4c3c(=O)c2c1
active

Test call for this molecule, please: COc1ccc(C(=O)N=Nc2c(O)n(C)c3ccccc23)cc1
inactive

Test call for this molecule, please: COc1cc(C2CC(c3ccc(SC)cc3)=NN2C(C)=O)cc(OC)c1OC (stereo not given)
inactive

Test call for this molecule, please: O=C(Nc1ccc(OS(=O)(=O)c2ccc(F)cc2)cc1)c1ccc(Cl)cc1
inactive

Test call for this molecule, please: CN(C)CCCNc1nc2ccccc2c2c(=O)c3cc(F)ccc3sc12
active

Test call for this molecule, please: NS(=O)(=O)c1ccc(-n2nc(-c3ccc(Cl)cc3)c3ccccc3c2=O)cc1
inactive

Test call for this molecule, please: COc1ccc(NC2=C(Br)C(=O)C(C)=C(C)C2=O)cc1
active

Test call for this molecule, please: c1ccc(-c2nc3sc(-c4ccccc4)cn3n2)cc1
inactive

Test call for this molecule, please: Cc1nc2cnc(N)c(C#Cc3cncc(C(=O)Nc4ccc(CN5CCN(C)CC5)c(C(F)(F)F)c4)c3)c2nc1C
active

Test call for this molecule, please: COc1cc(C(=O)N/N=C/c2cc3cc(OCc4ccccc4)ccc3nc2OC)cc(OC)c1OC
inactive

Test call for this molecule, please: O=C(CCc1nnc(-c2c(Cl)cccc2Cl)o1)c1nc2ccccc2[nH]1
inactive

Test call for this molecule, please: O=c1c2cc(F)ccc2sc2c(N3CCCCC3)nc3ccccc3c12
inactive

Test call for this molecule, please: COc1cc2cc(Oc3ccc(NC(=O)Nc4ccc(Cl)c(C(F)(F)F)c4)cc3)c(C)nc2cc1OCCN1CCOCC1
active

Test call for this molecule, please: O=c1c2cccc(F)c2sc2c(NCCCNCCO)nc3ccccc3c12
active

Test call for this molecule, please: COc1cc(/C=C/c2c(C(C)=O)c(C)nc3ccccc23)cc(OC)c1OC
inactive

Test call for this molecule, please: FC(F)(F)c1cc(Nc2ccc3c(OCCCN4CCOCC4)cccc3n2)ccc1Cl
active

Test call for this molecule, please: CNCCCNc1nc2ccccc2c2c(=O)c3cc(F)ccc3sc12
active

Test call for this molecule, please: NCCOc1ncccc1/C=C1\c2ccccc2-c2ccc(C(F)F)cc21
inactive

Test call for this molecule, please: O=c1c2cc(F)ccc2sc2c(NCCCNCCO)nc3ccccc3c12
active

Test call for this molecule, please: CN1C(=O)CNC(=O)[C@H](NC(=O)c2nc3ccccc3cc2O)CSSC[C@H]1C(=O)NCCc1nc2ccccc2cc1O
active

Test call for this molecule, please: O=C(Nc1ccc(I)cc1F)c1cc(I)ccc1O
active

Test call for this molecule, please: C#Cc1cccc(NC(=O)Nc2ccccc2NC(=O)CCl)c1
active

Test call for this molecule, please: COC(=O)[C@H](C)NC(=O)NC(=O)NC(=O)CI
active

Test call for this molecule, please: O=C(Cc1ccc2c(c1)OCCO2)Nc1nc2ccc(F)cc2s1
inactive

Test call for this molecule, please: C=C1CC[C@H](C(C)C)[C@@H]2[C@H]1[C@H]1CC(=C)[C@@H](O)CC[C@@](C)(O)[C@@H]2O1
inactive

Test call for this molecule, please: Cc1cccc(NCc2cn(-c3ccc(C(=O)O)cc3)nc2-c2ccc(C(=O)O)cc2)n1
inactive

Test call for this molecule, please: Cc1nc(/N=C(\N)NC(=O)Nc2ccccc2Cl)sc1C
inactive

Test call for this molecule, please: COc1ccc(OC)c(/C=C/C(=O)N/N=C/c2ccc(Cl)cc2)c1
inactive

Test call for this molecule, please: C=C1C(=O)O[C@H]2[C@H]1CC/C(COC(=O)CCC(=O)NCCOCCOCC(=O)Nc1ccc(OC)c(C(N)=O)c1O)=C\CC[C@@]1(C)O[C@@H]21
inactive

Test call for this molecule, please: O=S(=O)(NCCCNc1cc(-c2c(-c3cccc(O)c3)nc3sccn23)ccn1)c1cccc2ccccc12
inactive

Test call for this molecule, please: O=C(N/N=C/[C@H](O)[C@H](O)[C@H](O)CO)c1ccc(NC(=O)c2cccnc2)cc1
inactive

Test call for this molecule, please: BrCCCc1n(Cc2ccc3ccccc3c2)c2ccccc2[n+]1Cc1ccc2ccccc2c1
active

Test call for this molecule, please: Cc1cc(C)c(-c2c(N)cc(Br)cc2Br)c(N)c1
inactive

Test call for this molecule, please: CCC12CCC[N+]3([O-])CCC4(C(=Nc5ccccc54)C(O)(C(=O)OC)C1)C23 (stereo not given)
inactive

Test call for this molecule, please: Cc1nc2ccccc2n1CC1C(=O)NC(=O)NC1=O
inactive

====

Please provide measured growth for the entries that follow.
- Test system: BT-549 breast
- Test description: NCI-60 one-dose screen, 48 h (100 = growth as untreated, 0 = no growth, -100 = all killed)
- Condition label: 10 µM unless noted
Compounds without any hit were thinned out: in the full panel of roughly 83,000, 20% have a hit.
Your answer is read as %, so omit the unit and give the number.

The compound listed as COc1cccc(Cc2nn3cc(-c4ccccc4)nc3s2)c1 has a reported growth of 91.6

The compound listed as CC(C)C(=O)Nc1ccc(-c2nc(-c3cccc(OCCN4CCOCC4)c3)c(-c3ccnc(Br)c3)[nH]2)cc1 has a reported growth of 56.4

The compound listed as c1ccc(Cc2nn3cc(-c4ccccc4)nc3s2)cc1 has a reported growth of 102

The compound listed as COc1cccc(-c2nc(-c3ccc(NC(=O)OC(C)C)cc3)[nH]c2-c2ccnc(Br)c2)c1 has a reported growth of 48

The compound listed as O=C(CCN1C(=O)/C(=C/c2ccc(O)cc2)SC1=S)Nc1ccc(Cl)cc1 has a reported growth of 99.8

The compound listed as COc1c(C2CC(=O)Nc3c2c(C)nn3-c2nc3ccccc3[nH]2)cc2c(c1OC)OCO2 (centres undefined) has a reported growth of 47.8

The compound listed as COc1ccc(C(=O)COC(=O)[C@H](C[Se][Se]C[C@H](NC(=O)c2ccc(Br)cc2F)C(=O)OCC(=O)c2ccc(OC)cc2)NC(=O)c2ccc(Br)cc2F)cc1 has a reported growth of -89.6

The compound listed as CCCCCCn1c(-c2ccc(C(=O)O/N=C(\N)c3ccc4ccccc4c3)cc2)nc(-c2ccccc2)c1-c1ccccc1 has a reported growth of 79.6

The compound listed as CC(=O)CC(c1ccccc1)c1c(C)[nH]c2ccccc12 (centres undefined) has a reported growth of 112

====

- Tested on: DU-145 prostate
- Test description: NCI-60 one-dose screen, 48 h
- Condition label: 10 µM unless noted
Compounds without any hit were thinned out: in the full panel of roughly 83,000, 20% have a hit. Activity calls are given as the source filed them. Rule for the calls: active = growth percent below 10; inactive = the rest.
Select the matching outcome among active, inactive

Test call for this compound, please: COc1ccc(OC)c(/C=C/C(=O)N/N=C/c2ccccc2)c1
inactive

Test call for this compound, please: CC(=O)CC[C@H]1C(=O)N[C@@H](C(C)C)C(=O)N[C@@H](Cc2cc(O)cc(F)c2)C(=O)N2CCC[C@H](N2)C(=O)O[C@H](/C(C)=C/C=C/C(=O)OC(C)(C)C)C/C=C/C=C/[C@H](O)[C@H](C)[C@H]1O
inactive

Test call for this compound, please: O=S(=O)(Nc1ccc(-c2nc(-c3cccc(OCCN4CCOCC4)c3)c(-c3ccnc(Br)c3)[nH]2)cc1)c1ccccc1
inactive

Test call for this compound, please: COc1ccn2c(C(C)=O)cc(C(=O)c3ccc4c(c3)Sc3ccccc3N4)c2c1
active

====

Please provide measured growth for the entries that follow.
- Test system: OVCAR-5 ovarian
- Test description: NCI-60 one-dose screen, 48 h (100 = growth as untreated, 0 = no growth, -100 = all killed)
- Condition label: 10 µM unless noted
- Protocol: Growth inhibition of the OVCAR-5 human tumor cell line is measured as a screen for anti-cancer activity. Cells are grown in 96 well plates and exposed to the test compound for 48 hours. Compounds are tested at a single concentration, which is 10^-5 M for most compounds. The reported endpoint is percent growth (GI% or GIPRCNT), where numbers from 0 - 100% represent growth inhibition, and numbers from -100% - 0 represent cell death. For example, a value of 40 represents 60% growth inhibition. […]
The panel holds about 83,000 compounds, 20% with a hit somewhere; the sample as a whole holds those more often.
Your answer is read as %, so omit the unit and give the number.

Entry COc1cc(C(=O)c2cnc(-c3c[nH]c4cccc(C)c34)[nH]2)cc(OC)c1OC : growth on OVCAR-5 ovarian = 46.5

Entry CCCCCCNC(=O)Oc1ccc(/C(=C(\C)c2ccc(Cl)cc2)c2ccc(OCCN3CCCCC3)cc2)cc1 : growth on OVCAR-5 ovarian = 72

Entry COC(=O)Nc1ccc(-c2nc(-c3cccc(OC)c3)c(-c3ccnc(Br)c3)[nH]2)cc1 : growth on OVCAR-5 ovarian = 85.6

Entry CCCCNc1nc(NN2C(=O)c3cccc4cccc(c34)C2=O)nc(-n2cnc3ccccc32)n1 : growth on OVCAR-5 ovarian = 83.8

Entry COc1cccc(Cc2nn3cc(-c4ccccc4)nc3s2)c1 : growth on OVCAR-5 ovarian = 114
